For each entry below, report its pIC50 value.
Biological target: purified recombinant human Aggrecanase-1 (rAgg1) (Homo sapiens, UniProt O75173)
Sequence (O75173 213-837): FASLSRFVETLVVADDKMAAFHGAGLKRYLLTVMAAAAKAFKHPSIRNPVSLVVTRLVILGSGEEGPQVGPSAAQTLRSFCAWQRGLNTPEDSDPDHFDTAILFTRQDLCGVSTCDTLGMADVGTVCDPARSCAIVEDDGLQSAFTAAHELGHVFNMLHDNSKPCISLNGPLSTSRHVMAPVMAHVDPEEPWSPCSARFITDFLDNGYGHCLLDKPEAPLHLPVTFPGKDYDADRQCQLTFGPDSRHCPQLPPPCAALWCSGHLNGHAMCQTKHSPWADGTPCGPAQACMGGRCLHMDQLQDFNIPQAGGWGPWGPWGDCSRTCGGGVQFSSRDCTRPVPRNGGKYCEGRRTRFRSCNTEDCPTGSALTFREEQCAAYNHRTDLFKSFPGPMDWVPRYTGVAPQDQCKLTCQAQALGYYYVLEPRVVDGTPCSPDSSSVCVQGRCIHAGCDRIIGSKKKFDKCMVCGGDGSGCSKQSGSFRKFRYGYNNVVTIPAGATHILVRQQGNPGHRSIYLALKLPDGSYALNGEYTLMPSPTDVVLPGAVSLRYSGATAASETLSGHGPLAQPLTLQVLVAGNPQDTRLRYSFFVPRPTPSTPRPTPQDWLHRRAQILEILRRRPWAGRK
Test: In vitro fluorescence screen for Aggrecanase-1 inhibitors
Type: biochemical
Settings: Table 3; read-out: Agg1 IC50
pIC50: −log10 of the molar value.

Exam item: State its pIC50 for this compound: "COc1cccc(-c2ccc(C(=O)N[C@@H](CCC(=O)O)C(=O)NC(C)(C)Cc3ccc(Cl)cc3)s2)c1"
Marked response: > 7.52

Exam item: State its pIC50 for this compound: "CC(C)(Cc1ccccc1)NC(=O)[C@H](CCC(=O)O)NC(=O)c1sccc1-c1ccccc1"
Marked response: 4.66

Exam item: State its pIC50 for this compound: COc1cc(OC)cc(OCc2ccc(-c3ccc(C(=O)N[C@@H](CCC(=O)O)C(=O)NCc4cccc(C)c4)cc3)cc2)c1 [Example 15Q]
Marked response: 6.80

Exam item: State its pIC50 for this compound: "CC(=O)c1ccc(-c2ccc(C(=O)N[C@@H](CCC(=O)O)C(=O)NC(C)(C)Cc3ccc(Cl)cc3)cc2)s1"
Marked response: 5.62

Exam item: State its pIC50 for this compound: COc1cc(COc2cccc(-c3ccc(C(=O)N[C@@H](CCC(=O)O)C(=O)NCc4cc(OC)c(OC)c(OC)c4)cc3)c2)cc(OC)c1 [Example 15L]
Marked response: 7.33

Exam item: State its pIC50 for this compound: "CC(C)(Cc1ccccc1)NC(=O)[C@H](CCC(=O)O)NC(=O)c1ccc(-c2nccs2)cc1"
Marked response: 6.57

Exam item: State its pIC50 for this compound: "CC(C)(Cc1ccc(F)cc1)NC(=O)[C@H](CCC(=O)O)NC(=O)c1ccc(-c2cccc(F)c2)cc1"
Marked response: > 7.52

Exam item: State its pIC50 for this compound: "CC(C)(Cc1ccc(Cl)cc1)NC(=O)[C@H](CCC(=O)O)NC(=O)c1ccc(-c2cccc(Cl)c2)cc1"
Marked response: > 7.52

Exam item: State its pIC50 for this compound: CC(C)(Cc1ccccc1)NC(=O)[C@H](CCC(=O)O)NC(=O)c1ccc(-c2ccc(COc3cc(C(F)(F)F)cc(C(F)(F)F)c3)cc2)cc1 [Example 15O]
Marked response: 7.28

Exam item: State its pIC50 for this compound: "CC(C)(Cc1ccc(F)cc1)NC(=O)[C@H](CCC(=O)O)NC(=O)c1ccc(-c2ccc(F)cc2)s1"
Marked response: > 7.52

Exam item: State its pIC50 for this compound: "CC(C)(Cc1ccc(F)cc1)NC(=O)[C@H](CCC(=O)O)NC(=O)c1ccc(-c2ccsc2)cc1"
Marked response: > 7.52

Exam item: State its pIC50 for this compound: "CC(C)(Cc1ccc(Cl)s1)NC(=O)[C@H](CCC(=O)O)NC(=O)c1ccc(-c2ccc(F)c(F)c2)cc1"
Marked response: > 7.52

Exam item: State its pIC50 for this compound: "CC(C)(Cc1ccc(Cl)cc1)NC(=O)[C@H](CCC(=O)O)NC(=O)c1ccc(-c2ccc(Cl)cc2)s1"
Marked response: > 7.52

Exam item: State its pIC50 for this compound: "CC(C)(Cc1ccccc1)NC(=O)[C@H](CCC(=O)O)NC(=O)c1ccc(-c2ccccc2)s1"
Marked response: > 7.52

Exam item: State its pIC50 for this compound: "CC(C)(Cc1ccc(Cl)cc1)NC(=O)[C@H](CCC(=O)O)NC(=O)c1ccc(-c2ccc(Cl)s2)cc1"
Marked response: > 7.52

Exam item: State its pIC50 for this compound: "CC(C)(Cc1ccccc1)NC(=O)[C@H](CCC(=O)O)NC(=O)c1ccc(-c2ccc(F)c(F)c2)cc1"
Marked response: 7.22

Exam item: State its pIC50 for this compound: "CC(C)(Cc1ccccc1)NC(=O)[C@H](CCC(=O)O)NC(=O)c1ccc(-c2ccc(F)cc2)s1"
Marked response: > 7.52

Exam item: State its pIC50 for this compound: "CC(C)(Cc1ccc(Cl)cc1)NC(=O)[C@H](CCC(=O)O)NC(=O)c1ccc(-c2cc(F)cc(F)c2)cc1"
Marked response: > 7.52

Exam item: State its pIC50 for this compound: "CC(C)(Cc1ccc(F)cc1)NC(=O)[C@H](CCC(=O)O)NC(=O)c1ccc(-c2ccc(F)c(F)c2)cc1"
Marked response: > 7.52

Exam item: State its pIC50 for this compound: "COc1cc(CNC(=O)[C@H](CCC(=O)O)NC(=O)c2ccc(-c3ccc(CO)cc3)cc2)cc(OC)c1OC"
Marked response: 6.64

Exam item: State its pIC50 for this compound: "CC(C)(Cc1ccc(Cl)cc1)NC(=O)[C@H](CCC(=O)O)NC(=O)c1ccc(-c2ccncc2)s1"
Marked response: 7.40

Exam item: State its pIC50 for this compound: "CC(C)(Cc1ccc(F)cc1)NC(=O)[C@H](CCC(=O)O)NC(=O)c1ccc(-c2cccnc2)s1"
Marked response: 7.15 to 7.70

Exam item: State its pIC50 for this compound: "CC(C)(Cc1ccccc1)NC(=O)[C@H](CCC(=O)O)NC(=O)c1cccc(-c2ccc(Cl)s2)c1"
Marked response: < 6.05

Exam item: State its pIC50 for this compound: "CC(C)(Cc1ccc(F)cc1)NC(=O)[C@H](CCC(=O)O)NC(=O)c1ccc(-c2ccc3c(c2)OCC3)cc1"
Marked response: 6.52

Exam item: State its pIC50 for this compound: COc1cc(CNC(=O)[C@H](CCC(=O)O)NC(=O)c2ccc(-c3cccc(OCc4ccccc4)c3)cc2)cc(OC)c1OC [Example 15K]
Marked response: > 7.52

Exam item: State its pIC50 for this compound: "CC(C)(Cc1ccccc1)NC(=O)[C@H](CCC(=O)O)NC(=O)c1ccc(-c2ccc(Cl)cc2)s1"
Marked response: > 7.52

Exam item: State its pIC50 for this compound: "CC(C)(Cc1ccccc1)NC(=O)[C@H](CCC(=O)O)NC(=O)c1ccc(-c2ccc(F)cc2)cc1"
Marked response: > 7.52

Exam item: State its pIC50 for this compound: "CC(C)(Cc1ccc(Cl)cc1)NC(=O)[C@H](CCC(=O)O)NC(=O)c1ccc(-c2cccnc2)s1"
Marked response: > 7.52

Exam item: State its pIC50 for this compound: "CC(C)(Cc1ccc(F)cc1)NC(=O)[C@@H](CCC(=O)O)NC(=O)c1ccc(-c2ccc(Cl)s2)cc1"
Marked response: < 6.40

###

Biological target: purified recombinant human Aggrecanase-1 (rAgg1) (Homo sapiens, UniProt O75173)
Sequence (O75173 213-837): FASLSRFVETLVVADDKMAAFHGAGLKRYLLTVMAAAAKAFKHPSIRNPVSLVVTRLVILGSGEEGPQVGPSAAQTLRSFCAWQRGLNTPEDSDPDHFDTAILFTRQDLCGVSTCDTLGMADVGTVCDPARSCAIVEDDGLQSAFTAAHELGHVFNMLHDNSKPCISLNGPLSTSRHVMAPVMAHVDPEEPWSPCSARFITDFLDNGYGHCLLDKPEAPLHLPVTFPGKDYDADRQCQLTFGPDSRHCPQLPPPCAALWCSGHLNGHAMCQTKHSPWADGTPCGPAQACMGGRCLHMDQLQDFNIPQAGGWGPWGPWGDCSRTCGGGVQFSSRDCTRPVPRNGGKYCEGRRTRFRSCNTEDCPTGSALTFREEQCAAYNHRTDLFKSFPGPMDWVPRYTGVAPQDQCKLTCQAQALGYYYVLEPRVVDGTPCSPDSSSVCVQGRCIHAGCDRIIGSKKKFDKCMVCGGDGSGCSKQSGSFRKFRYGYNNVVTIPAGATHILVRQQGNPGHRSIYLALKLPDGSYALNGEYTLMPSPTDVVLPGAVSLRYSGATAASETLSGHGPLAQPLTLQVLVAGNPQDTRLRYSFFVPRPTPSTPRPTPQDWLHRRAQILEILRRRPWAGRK
Assay: In vitro fluorescence screen for Aggrecanase-1 inhibitors
Type: biochemical
Settings: Table 3; read-out: Ki Agg1
pKi: −log10 of the molar value.
Criterion: pKi meeting or surpassing 8. Met: True. Not met: False.

Exam item: Quick check: does "CC(C)(Cc1ccc(F)cc1)NC(=O)[C@H](CCC(=O)O)NC(=O)c1ccc(-c2cccs2)cc1" have pKi greater than or equal to 8?
Marked response: True

Exam item: Quick check: does "CC(C)(Cc1ccc(Cl)cc1)NC(=O)[C@H](CCC(=O)O)NC(=O)c1ccc(-c2cccs2)cc1" have pKi greater than or equal to 8?
Marked response: True

Exam item: Quick check: does "CC(C)(Cc1ccc(F)cc1)NC(=O)[C@H](CCC(=O)O)NC(=O)c1ccc(-c2ccc(F)c(Cl)c2)cc1" have pKi greater than or equal to 8?
Marked response: False

Exam item: Quick check: does "CC(C)(Cc1ccc(F)cc1)NC(=O)[C@H](CCC(=O)O)NC(=O)c1ccc(-c2ccc(F)cc2)s1" have pKi greater than or equal to 8?
Marked response: True

Exam item: Quick check: does "CC(C)(Cc1ccccc1)NC(=O)[C@H](CCC(=O)O)NC(=O)c1ccc(-c2cccs2)cc1" have pKi greater than or equal to 8?
Marked response: True
